Documented denaturant m value across a set of variants
B1: Subtilisin-chymotrypsin inhibitor-2A, P01053 (parent)
chain: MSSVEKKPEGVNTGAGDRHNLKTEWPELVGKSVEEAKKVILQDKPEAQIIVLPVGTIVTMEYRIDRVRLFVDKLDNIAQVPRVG

Variants of: B1
condition_summary: Hordeum vulgare; pH 6.3; 25 °C; GdnHCl; Fluorescence; MES 450 mM; reversible: yes; structure 2CI2; whole UniProt chain shown
Provide the reading as a plain figure in kcal/mol/M.

Record request: denaturant m value value, item T59A E61A
1.94

Also check T59D
1.87

Also check E61A
1.78

Also check T59A
1.89
